assay target: Flt-3 (Homo sapiens)
Sequence (P36888 27-993, species assumed): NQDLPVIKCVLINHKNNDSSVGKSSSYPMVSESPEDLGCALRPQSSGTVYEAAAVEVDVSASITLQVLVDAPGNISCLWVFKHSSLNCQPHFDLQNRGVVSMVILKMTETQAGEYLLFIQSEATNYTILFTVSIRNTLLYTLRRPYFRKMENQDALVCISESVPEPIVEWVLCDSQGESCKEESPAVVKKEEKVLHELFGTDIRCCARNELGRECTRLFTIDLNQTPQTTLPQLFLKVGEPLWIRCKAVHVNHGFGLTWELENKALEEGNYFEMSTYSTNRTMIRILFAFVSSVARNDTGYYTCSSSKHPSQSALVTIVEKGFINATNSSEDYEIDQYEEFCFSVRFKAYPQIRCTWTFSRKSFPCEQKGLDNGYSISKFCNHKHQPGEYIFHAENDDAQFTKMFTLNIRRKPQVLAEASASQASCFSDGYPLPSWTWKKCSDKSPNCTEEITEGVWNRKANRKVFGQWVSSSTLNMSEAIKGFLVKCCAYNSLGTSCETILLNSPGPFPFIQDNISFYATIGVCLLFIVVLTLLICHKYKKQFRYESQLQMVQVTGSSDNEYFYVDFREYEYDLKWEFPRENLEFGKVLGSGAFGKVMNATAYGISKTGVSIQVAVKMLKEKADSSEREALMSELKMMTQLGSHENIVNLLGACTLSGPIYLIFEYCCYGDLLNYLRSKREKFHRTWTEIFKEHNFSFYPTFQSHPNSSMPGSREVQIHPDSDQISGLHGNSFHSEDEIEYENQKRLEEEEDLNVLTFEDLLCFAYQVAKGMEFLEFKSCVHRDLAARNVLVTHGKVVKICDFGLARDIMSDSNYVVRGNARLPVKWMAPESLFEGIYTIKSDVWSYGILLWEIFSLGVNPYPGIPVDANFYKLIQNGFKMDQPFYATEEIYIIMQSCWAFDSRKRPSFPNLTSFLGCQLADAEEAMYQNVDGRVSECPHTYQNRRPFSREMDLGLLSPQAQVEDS
experimental details: Evaluation of kinase selectivity: % inhibition rate of Flt-3 at 1 μmol/L
Assay type: biochemical
protocol conditions: compound at 1 μmol/L
attribute measured: inhibition at 1 µM (%)

{"compound": "O=C1CN(c2cncc(C(F)(F)F)c2)C(=O)N1C12CCC(Oc3ncnc4[nH]ccc34)(CC1)C2 [Example 3(65)]", "attribute measured": "inhibition at 1 µM", "data value": 5}

P: Cc1cc(Oc2ccnc(N)n2)ccc1N1C(=O)CN(c2cncc(C(F)(F)F)c2)C1=O [Example 2]
Q: O=C1CN(c2cncc(C(F)(F)F)c2)C(=O)N1c1ccc(Oc2cnc3[nH]ncc3c2)cc1 [Example 1(11)]
Query: Between item P and item Q , which reported inhibition at 1 µM is smaller? Lab note: record the label of whichever item you select.
Response: P

P: O=C1CN(c2cncc(C(F)(F)F)c2)C(=O)N1C12CCC(Oc3ncnc4[nH]cc(F)c34)(CC1)C2 [Example 42(1)]
Q: Cc1cc(Oc2ccnc(N)n2)ccc1N1C(=O)CN(c2ccc(F)c(OC(F)(F)F)c2)C1=O [Example 3(110)]
Query: Between P and Q , whose recorded inhibition at 1 µM is greater? Lab note: record the label of whichever item you select.
Response: Q
(Q: 6%, P: -2%)
